- tested-system: recombinant human SAE enzyme (Homo sapiens (Human))
- experimental-protocol: SAE HTRF enzyme assay
- Format: biochemical
- details: Concentration 0.111 μM; read-out: Percent Inhibition
Let's look at some compounds and their measured inhibition at 0.111 µM.
quantity: inhibition at 0.111 µM (%)

compound="NS(=O)(=O)OC[C@H]1C[C@@H](Nc2ncncc2C(=O)c2cc(Cc3cccc(Cl)c3)c(Cl)s2)C[C@@H]1O [I-107]" uom=% readout_value=96
compound="NS(=O)(=O)OC[C@H]1C[C@@H](Nc2ncncc2C(=O)c2cc(Cc3cccc(Br)c3)cs2)[C@H](O)[C@@H]1O [I-26]" uom=% readout_value=100
compound="N#Cc1ccccc1OCc1csc(C(=O)c2cncnc2N[C@@H]2C[C@H](COS(N)(=O)=O)[C@@H](O)C2)c1 [I-124]" uom=% readout_value=97
compound="NS(=O)(=O)OC[C@H]1C[C@@H](Nc2ncncc2C(=O)c2cc(CN3CC=CCC3)cs2)C[C@@H]1O [I-204]" uom=% readout_value=52
compound="NS(=O)(=O)OC[C@H]1C[C@@H](Nc2ncncc2C(=O)c2cc(Cc3cccc(Br)n3)cs2)C[C@@H]1O [I-53]" uom=% readout_value=99
compound="Cc1cc(Cc2cccc(Cl)c2)sc1C(=O)c1cncnc1N[C@@H]1C[C@H](COS(N)(=O)=O)[C@@H](O)C1 [I-233]" uom=% readout_value=22
compound="NS(=O)(=O)OC[C@H]1C[C@@H](Nc2ncncc2C(=O)c2cc(Cn3cc(C(F)(F)F)cn3)cs2)C[C@@H]1O [I-130]" uom=% readout_value=97
compound="NS(=O)(=O)OC[C@H]1C[C@@H](Nc2ncncc2C(=O)c2cc(Cn3cnc4ccccc43)cs2)C[C@@H]1O [I-192]" uom=% readout_value=66
compound="NS(=O)(=O)OC[C@H]1C[C@@H](Nc2ncncc2C(=O)c2cc(Cc3cccc(Cl)c3)co2)C[C@@H]1O [I-79]" uom=% readout_value=97
compound="Cc1oc(C(=O)c2cncnc2N[C@@H]2C[C@H](COS(N)(=O)=O)[C@@H](O)[C@@H]2F)cc1Cc1cccc(Cl)c1 [I-75]" uom=% readout_value=98
compound="Cc1cccc(Cc2cc(C(=O)c3cncnc3N[C@@H]3C[C@H](COS(N)(=O)=O)[C@@H](O)C3)sc2C)c1 [I-45]" uom=% readout_value=99
compound="NS(=O)(=O)OC[C@H]1C[C@@H](Nc2ncncc2C(=O)c2ccc(Cc3cccc(Cl)c3)s2)[C@@H](F)[C@@H]1O [I-205]" uom=% readout_value=51
compound="NS(=O)(=O)OC[C@H]1C[C@@H](Nc2ncncc2C(=O)c2cc(Cc3cccc(Cl)c3)c(Cl)o2)C[C@@H]1O [I-72]" uom=% readout_value=98
compound="NS(=O)(=O)OC[C@H]1C[C@@H](Nc2ncncc2C(=O)c2ccc(Cc3ccccc3)s2)[C@H](O)[C@@H]1O [I-115]" uom=% readout_value=90
compound="Cc1sc(C(=O)c2cncnc2N[C@@H]2C[C@H](COS(N)(=O)=O)[C@@H](O)C2)cc1[C@@H]1OCCc2ccccc21 [I-256b]" uom=% readout_value=99
compound="NS(=O)(=O)OC[C@H]1C[C@@H](Nc2ncncc2C(=O)c2ccc(Cc3ccccc3)o2)[C@H](O)[C@@H]1O [I-87]" uom=% readout_value=94
compound="NS(=O)(=O)OC[C@H]1C[C@@H](Nc2ncncc2C(=O)c2cc(C(=O)c3cccc(Cl)c3)c(Cl)s2)C[C@@H]1O [I-207]" uom=% readout_value=51
compound="CCc1ccccc1OCc1csc(C(=O)c2cncnc2N[C@@H]2C[C@H](COS(N)(=O)=O)[C@@H](O)C2)c1 [I-182]" uom=% readout_value=82
compound="NS(=O)(=O)OC[C@H]1C[C@@H](Nc2ncncc2C(=O)c2cc(Cc3ccccc3)cs2)C[C@@H]1O [I-88]" uom=% readout_value=98
compound="NS(=O)(=O)OC[C@H]1C[C@@H](Nc2ncncc2C(=O)c2cc(Cn3ccc4ccc(C(F)(F)F)cc43)cs2)C[C@@H]1O [I-184]" uom=% readout_value=85
compound="CC(=O)c1csc(C(=O)c2cncnc2N[C@@H]2C[C@H](COS(N)(=O)=O)[C@@H](O)C2)c1 [I-229]" uom=% readout_value=25
compound="NS(=O)(=O)OC[C@H]1C[C@@H](Nc2ncncc2C(=O)c2cc(CN3CCc4ccccc4C3)cs2)C[C@@H]1O [I-167]" uom=% readout_value=89
compound="N#Cc1sc(C(=O)c2cncnc2N[C@@H]2C[C@H](COS(N)(=O)=O)[C@@H](O)C2)cc1Cc1cccc(Cl)c1 [I-179]" uom=% readout_value=86
compound="NS(=O)(=O)OC[C@H]1C[C@@H](Nc2ncncc2C(=O)c2cc(CN3CCC(F)(F)C3)cs2)C[C@@H]1O [I-228]" uom=% readout_value=29
compound="COCc1cc(C(=O)c2cncnc2N[C@@H]2C[C@H](COS(N)(=O)=O)[C@@H](O)C2)sc1Cl [I-218]" uom=% readout_value=33
compound="NS(=O)(=O)OC[C@H]1C[C@@H](Nc2ncncc2C(=O)c2cc(CC3=CCCCC3)cs2)C[C@@H]1O [I-140]" uom=% readout_value=93
compound="CC(=O)c1cc(C(=O)c2cncnc2N[C@@H]2C[C@H](COS(N)(=O)=O)[C@@H](O)C2)sc1Cl [I-242]" uom=% readout_value=25
compound="COc1ccc2c(c1)N(Cc1cc(C(=O)c3cncnc3N[C@@H]3C[C@H](COS(N)(=O)=O)[C@@H](O)C3)sc1C)CC2 [I-126]" uom=% readout_value=98

---

- tested-system: recombinant human SAE enzyme (Homo sapiens (Human), UniProt Q9UBT2)
- Sequence (Q9UBT2 whole entry): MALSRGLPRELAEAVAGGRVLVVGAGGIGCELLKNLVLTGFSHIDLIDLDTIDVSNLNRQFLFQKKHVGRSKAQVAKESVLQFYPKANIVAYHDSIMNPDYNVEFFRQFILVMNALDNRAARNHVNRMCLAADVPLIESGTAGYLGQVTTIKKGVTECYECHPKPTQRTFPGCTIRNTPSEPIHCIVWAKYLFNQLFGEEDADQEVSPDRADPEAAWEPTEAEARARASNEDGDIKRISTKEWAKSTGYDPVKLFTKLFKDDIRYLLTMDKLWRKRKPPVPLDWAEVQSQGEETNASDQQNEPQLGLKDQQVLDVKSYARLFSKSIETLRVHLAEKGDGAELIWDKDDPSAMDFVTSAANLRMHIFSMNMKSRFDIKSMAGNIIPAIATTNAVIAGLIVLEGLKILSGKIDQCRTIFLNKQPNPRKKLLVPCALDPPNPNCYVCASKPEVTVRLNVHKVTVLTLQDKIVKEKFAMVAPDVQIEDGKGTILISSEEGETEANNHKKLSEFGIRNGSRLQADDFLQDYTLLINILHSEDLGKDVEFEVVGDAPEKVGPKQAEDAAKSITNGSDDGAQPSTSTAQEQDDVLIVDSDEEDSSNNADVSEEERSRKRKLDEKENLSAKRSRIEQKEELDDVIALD
- Sequence (Q9UBE0 whole entry partner): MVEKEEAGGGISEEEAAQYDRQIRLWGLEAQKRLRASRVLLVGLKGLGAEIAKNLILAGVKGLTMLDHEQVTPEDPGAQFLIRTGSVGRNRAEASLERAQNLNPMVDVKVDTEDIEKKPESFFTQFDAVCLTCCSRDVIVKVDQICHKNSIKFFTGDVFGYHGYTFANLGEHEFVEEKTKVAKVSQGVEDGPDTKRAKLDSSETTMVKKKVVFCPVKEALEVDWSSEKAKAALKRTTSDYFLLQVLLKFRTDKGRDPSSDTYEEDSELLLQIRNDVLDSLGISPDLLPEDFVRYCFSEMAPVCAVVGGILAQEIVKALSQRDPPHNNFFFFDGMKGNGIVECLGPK
- experimental-protocol: SAE HTRF enzyme assay
- Type: biochemical
- details: Concentration 0.111 μM
- Description: Example 215: SAE HTRF enzyme assay The SAE enzymatic reaction totals 50 μl and contains 50 mM HEPES Hemisodium (pH 7.5), 0.05% BSA, 5 mM MgCl2, 0.5 μM ATP, 250 μM GSH, 0.01 μM Ubc9-GST, 0.125 μM Sumo-Flag and 0.11 nM recombinant human SAE enzyme. […] After incubation for 2 hours at 24° C., quantification of FRET is performed on the Pherostar™ (BMG Labtech). Percentage inhibition values at a single concentration or enzyme inhibition (IC50) values are determined from those curves. […]
// values below are reported Percent Inhibition
quantity: Percent Inhibition

compound="C[C@](O)(c1ccccc1)c1coc(C(=O)c2cncnc2N[C@@H]2C[C@H](COS(N)(=O)=O)[C@@H](O)C2)c1 (single isomer, unassigned) [I-58b]" readout_value=100
compound="N[C@@H](c1cccc(Br)n1)c1cc(C(=O)c2cncnc2N[C@@H]2C[C@H](COS(N)(=O)=O)[C@@H](O)C2)sc1Cl (single isomer, unassigned) [I-18b]" readout_value=99
compound="NS(=O)(=O)OC[C@H]1C[C@@H](Nc2ncncc2C(=O)c2cc([C@@H]3NCCc4ccc(Br)cc43)c(Cl)s2)[C@H](O)[C@@H]1O (single isomer, unassigned) [I-259a]" readout_value=100
compound="CC(O)(c1cccc(Cl)c1)c1cc(C(=O)c2cncnc2N[C@@H]2C[C@H](COS(N)(=O)=O)[C@@H](O)C2)sc1Cl (single isomer, unassigned) [I-102a]" readout_value=36
compound="Cc1oc(C(=O)c2cncnc2N[C@@H]2C[C@H](COS(N)(=O)=O)[C@@H](O)C2)cc1[C@@H]1OCCc2ccc(Cl)cc21 (single isomer, unassigned) [I-270a]" readout_value=79
compound="CN1Cc2ccc(Cl)cc2[C@@H]1c1csc(C(=O)c2cncnc2N[C@@H]2C[C@H](COS(N)(=O)=O)[C@@H](O)C2)c1 (single isomer, unassigned) [I-265b]" readout_value=72
compound="COc1ccc(Cl)cc1[C@@H](O)c1cc(C(=O)c2cncnc2N[C@@H]2C[C@H](COS(N)(=O)=O)[C@@H](O)C2)sc1Cl (mixture of isomers)" readout_value=97
compound="NC(c1cccc(Br)c1)c1cc(C(=O)c2cncnc2NC2CC(O)C(COS(N)(=O)=O)C2)sc1Cl (mixture of isomers)" readout_value=99
compound="NS(=O)(=O)OC[C@H]1C[C@@H](Nc2ncncc2C(=O)c2cc(C3(c4cccc(Cl)c4)CCCO3)cs2)C[C@@H]1O (single isomer, unassigned) [I-20b]" readout_value=99
compound="Cc1sc(C(=O)c2cncnc2N[C@@H]2C[C@H](COS(N)(=O)=O)[C@@H](O)[C@H]2O)cc1[C@@H]1NCCc2ccc(Br)cc21 (single isomer, unassigned) [I-247a]" readout_value=100
compound="NS(=O)(=O)OC[C@H]1C[C@@H](Nc2ncncc2C(=O)c2cc([C@H]3OCCc4ccc(Cl)cc43)cs2)C[C@@H]1O (mixture of isomers)" readout_value=99
